Measured TGI, listed per entry.
tested on: T-47D breast; assay: NCI tumour cell line growth inhibition, 48 h
metric: TGI

In [3]: df
Out[3]:
                                   compound  readoutvalue
0  O=C(/C=C/c1ccc(O)c(-c2cc(C(=O)/C=C/c3ccc(O)cc3)c(O)cc2O)c1)c1ccc(O)cc1O       > 50 µM
1  Brc1cc(CCOC2CCCCO2)c(-c2sccc2CCOC2CCCCO2)s1 (stereo not drawn)      > 100 µM
2  Cc1c(N2C(=O)CS(=O)(=O)C2c2cccc(Oc3ccccc3)c2)c(=O)n(-c2ccccc2)n1C (stereo not drawn)      > 100 µM

Cited source for all entries: PubChem BioAssay (NCI)
